All figures here come from the supplement of paper PMC12764529.

Test summary: folding stability dG unfold (combined trypsin and chymotrypsin); higher = more stable
Use Y when the recorded folding stability dG unfold is no lower than 3 kcal/mol; use N when it is lower.

Monomer sequence: SAGGSAGGSAMSEEEKKKKKPKLEIKVKVEFTVDENGTVRAKVTFEDGTTLEVEIKLPPELLSAGGSAGGSA [r18_192_TrROS_Hall]
Class name: N

Monomer sequence: SAGGSAGGSMVIRVTVKLPNGEEKVFEIEVSEEELKNMSIEELKKLAEELGLPEDVKIELVPPSAGGSAGGS [r12_742_TrROS_Hall]
Class name: Y

Monomer sequence: SAGGSAGGSAGGSMSTVFVSTLTLPDPSGLSTVLTTTVEIDPEGNAHPVTSTEEVSAAASAGGSAGGSAGGS [r4_80_JUSTAS]
Class name: N

Monomer sequence: SAGGSAGGSAMTPEEIKKLFPNAKMKPFKGNGKTVIVIELPSGEKIEIVFDDGKPRIIVYKGSAGGSAGGSA [r18_13_TrMRF]
Class name: N

Monomer sequence: SAKAELEIKFPGWKVTVEIEDVDPKNDMVKLKAFFRNGWVFTQTVNPDDGKIEIPIIPVKPDPDGKWKFSAG [r14_466_TrROS]
Class name: N

Monomer sequence: SAGGSAGGPKEYYRVTVYVRNKDGEWEKVAEIEVPGMTEEELKELLAKLGLPPGAEVEIKIEKVSAGGSAGG [r6_88_TrROS_Hall]
Class name: Y

Monomer sequence: SAGGSAGGSAGGTKEFPIWFGGEPVKVTVEPDPDGQPKIEIEEPGGAEITIPPGGPLQFSAGGSAGGSAGGS [r10_989_TrROS]
Class name: N

Monomer sequence: SAGGFIVVPIKAKSLEEALEKAREIAAALGIPGTLEDPRVDLDDFLKNYKPDTEVRVYVRHPDGVIDELSAG [r5_503_TrMRF]
Class name: N

Monomer sequence: SAGGPVETPGPHPLRPVPVVEPKKVVVTYPDLSPEEAAALAAELEAQGATTSFDPATGTLTVTLTGLSAGGS [r16_765_JUSTAS]
Class name: N

Monomer sequence: SAGGSAGGAVDPALVSEETTSTSYYPDGTVVTTTTLKVPGKGTTVTLTTVTPLPPSSPSPSASLSAGGSAGG [r6_758_JUSTAS]
Class name: N

Monomer sequence: SAGGSAGGSAGGKRYRVTELEVVEVDGEKRLLVRFEDGRTQAFPAGAKISPDGAEIELLPSAGGSAGGSAGG [r7_931_TrROS_Hall]
Class name: N

Monomer sequence: MKYTLTLTDPTTPTTSTLTVPNDPEKALALLREAKAANPNLTATLTGVTSEEIVEAAKKAGLKDIKPKTAAS [r1_114_JUSTAS]
Class name: N

Monomer sequence: SMKPGQTVTFNVMIRMKDPNMTAQEFAEEAADEIAENFPPGVKIEIKVDDIEPDPPNGEVYFMVKITITVSA [r9_706_TrROS]
Class name: Y

Monomer sequence: SAGGSASMSNVTSYVTVYKKPGVDDLYYKVRILAPSEPKVIEIPESEIPKYEKEGIKIEKVSEELLSAGGSA [r15_783_JUSTAS]
Class name: N

Monomer sequence: SAGGSAGGSAMLVIRVYFEDTGRVLTLTADSEEEALEAIKRLLPPGAKIKKVEIFEVSEEDLSAGGSAGGSA [r18_350_TrROS_Hall]
Class name: Y

Monomer sequence: SAGGSAGGSDLPIKIKMEPIPPGMPPGQVYRMEIEIPNGWVIRYSFYFTGGKLEFEPMEIKPVSAGGSAGGS [r12_1049_TrROS]
Class name: Y

Monomer sequence: SAGFLGFGIEPHPNGWFKIEIMVMFPWPGGWFMFSIDITIPIVPIEPPPPPPVVEPKKENGKPKEWKYDSAG [r5_169_TrROS]
Class name: N

Monomer sequence: SAGGSAGGSAKKELKIGNVEHNPGDGRYWANIQIKDGKPIVPVEFDDPQDPERFVKKAIKQLSAGGSAGGSA [r18_479_TrROS]
Class name: N

Monomer sequence: SAGGSAGGEPITPEEAREIADYFMEEHGAKEVEVKVDPNGGIIKIDVTHPNDGRKYEREIQIEKSAGGSAGG [r6_550_TrROS]
Class name: N

Monomer sequence: SAGGSAGGSAGKKEKVILLPVDAEPDETPEELAKKLKELNPDVEVLGFDPETGYVLVKVPSAGGSAGGSAGG [r11_465_TrMRF]
Class name: N

Monomer sequence: SAGGSASPELQKRIKDALQEENPDYPVTVDEVDPKNNTIMITFNSPWHQKRIEKALKEDGIKITIYSAGGSA [r15_196_TrROS]
Class name: N

Monomer sequence: SAERTPVREADIPIPGLPVVVRVRTYAEAVELARKSGVPVVVETVEVEVFLPDGSRVRFPAPGLLVLDGSAG [r14_100_TrMRF]
Class name: N

Monomer sequence: VDLGIRTESVGGRRYRVLIRRPGTGEPRVLEVEGTLEEARERALREIREEYPDLPVRSINPVPVPAPPWLES [r1_80_TrMRF]
Class name: N

Monomer sequence: SAGGSAGGSPLDIEIKMEFHPDHGYWEMEIKIPGNGREINIHYQYEGGKPQITSPEQILDAIKSAGGSAGGS [r20_131_TrROS]
Class name: N

Monomer sequence: SAGGEKITIEVDGKKVTITKNEDGTITITIEHNGKVIKTITLPKNLEKITELTLTFNGKTYTITIEPSAGGS [r16_452_TrROS_Hall]
Class name: Y

Monomer sequence: SAGGSAGGSAGGMNPVSKVTKHSGPNGQVTETTTYFDPASGKTTVTYTDLVTGTTSTISTSAGGSAGGSAGG [r11_1063_JUSTAS]
Class name: N

Monomer sequence: SAGGSAGGSVESATTTITITASLTPEEVEEIIEELKKKGLNVKKVEIEREPETGSVTITVTVNPSAGGSAGG [r6_514_JUSTAS]
Class name: Y
